The values you see were collected from patent US20240190983A1.

- measurement.target: T1, African green monkey TNFR2 (Chlorocebus sabaeus (African green …))
- T1 construct: whole, on cells
- assay.comment: equilibrium binding of VHH-Fc-GpL to cells expressing African green monkey TNFR2, 37 C; column head Affinity (ng/ml)
- Protocol: Specific binding (open circles) was obtained by subtraction of the non-specific binding values (Hek293 cells—crosses) from the binding values for transfectants expressing human TNFR2 (total binding—closed circles). Specific binding was analyzed with the “nonlinear regression to a one-site specific binding curve” function of the GraphPad Prism5 software. […]
test.readout: Kd (µg/mL)
Give bare numbers, in µg/mL.

VHH:C118-Fc-GpL (Fc fusion, also called VHH-Fc-GpL format protein of C118; not shown: The Fc domain, the C-terminal GpL reporter and the linkers or tags of the VHH-Fc-GpL construct; No entry gives the joined chain or says which Fc variant was used) VHH: QVQLVESGGGSVQAGGSLRLSCAASGHTYRSNCMGWFRQAPGKEREGVAAMYTGTDWKYYADSVKGRFTISQDKAKNTLYLVMNNLKPDDTGVYYCAADFGFICGYDSDDDPYDAWGQGTQVTVSS | 0.1

Next binder, please.
Give the reported value of Kd for this record: VHH:C12-Fc-GpL (Fc fusion, also called VHH-Fc-GpL format protein of C12; not shown: The Fc domain, the C-terminal GpL reporter and the linkers or tags of the VHH-Fc-GpL construct; No entry gives the joined chain or says which Fc variant was used) VHH: DVQLVESGGGLVQPGGSLRLSCGGSGFTFSSYGMSWVRQAPGKGLEWVSGIYDDGSVTDYADSVKGRFTISRDDAKNTVYLQMNSLKSEDTALYYCATGEDGELNYWGQGTQVTVSS
0.08
